Tested on: RAW264.7
PROCEDURE_TEXT: Cytotoxicity against mouse RAW264.7 cells assessed as reduction in cell viability at 3 to 100 uM incubated for 24 hrs in presence of LPS by MTT assay
Format: cell-based
RUN_PARAMETERS: raw264.7, 24 h, dose 3-100 µM

{"INPUT_SMILES": "C[C@]12CC[C@H]3[C@@H](CC=C4C[C@@H](O)CC[C@@]43C)[C@@H]1CC[C@@H]2C(=O)NC1CCCCC1", "Activity": "Non-Toxic"}
{"INPUT_SMILES": "CCN(CC)C(=O)[C@H]1CC[C@H]2[C@@H]3CC=C4C[C@@H](O)CC[C@]4(C)[C@H]3CC[C@]12C", "Activity": "Non-Toxic"}
{"INPUT_SMILES": "C[C@]12CC[C@H]3[C@@H](CC=C4C[C@@H](O)CC[C@@]43C)[C@@H]1CC[C@@H]2C(=O)NCCN1CCCC1", "Activity": "Non-Toxic"}
{"INPUT_SMILES": "CC(C)NC(=O)[C@H]1CC[C@H]2[C@@H]3CC=C4C[C@@H](O)CC[C@]4(C)[C@H]3CC[C@]12C", "Activity": "Non-Toxic"}
{"INPUT_SMILES": "C[C@]12CC[C@H]3[C@@H](CC=C4C[C@@H](O)CC[C@@]43C)[C@@H]1CC[C@@H]2C(=O)Nc1n[nH]cc1C#N", "Activity": "Non-Toxic"}
{"INPUT_SMILES": "CCC[C@](C)(O)[C@H]1CC[C@H]2C3=CC=C4C[C@@H](O)CC[C@]4(C)[C@H]3CC[C@@]21C", "Activity": "Non-Toxic"}
{"INPUT_SMILES": "CC[C@](C)(O)[C@H]1CC[C@H]2C3=CC=C4C[C@@H](O)CC[C@]4(C)[C@H]3CC[C@@]21C", "Activity": "Non-Toxic"}
{"INPUT_SMILES": "C[C@]12CC[C@H]3[C@@H](CC=C4C[C@@H](O)CC[C@@]43C)[C@@H]1CC[C@@H]2C(=O)NCCc1ccccc1", "Activity": "Non-Toxic"}

====

Tested on: RAW264.7
PROCEDURE_TEXT: Antiinflammatory activity against mouse RAW264.7 cells assessed as inhibition of LPS-induced NO production at 20 uM after 24 hrs by Griess assay
Assay type: functional
Criterion: inhibition at 20 µM meeting or surpassing 40%. Met: rule met. Not met: rule not met.

{"MOLECULE": "C[C@]12CC[C@H]3[C@@H](CC=C4C[C@@H](O)CC[C@@]43C)[C@@H]1CC[C@@H]2C(=O)N1CCCCC1", "ASSAY_SYSTEM": "RAW264.7", "ANSWER_LABEL": "rule not met"}
{"MOLECULE": "CC(C)NC(=O)[C@H]1CC[C@H]2[C@@H]3CC=C4C[C@@H](O)CC[C@]4(C)[C@H]3CC[C@]12C", "ASSAY_SYSTEM": "RAW264.7", "ANSWER_LABEL": "rule not met"}
{"MOLECULE": "C[C@]12CC[C@H]3[C@@H](CC=C4C[C@@H](O)CC[C@@]43C)[C@@H]1CC[C@@H]2C(=O)NCCN1CCOCC1", "ASSAY_SYSTEM": "RAW264.7", "ANSWER_LABEL": "rule not met"}
{"MOLECULE": "COC(=O)[C@H]1CC[C@H]2C3=CC=C4C[C@@H](O)CC[C@]4(C)[C@H]3CC[C@]12C", "ASSAY_SYSTEM": "RAW264.7", "ANSWER_LABEL": "rule not met"}
{"MOLECULE": "CCCCNC(=O)[C@H]1CC[C@H]2[C@@H]3CC=C4C[C@@H](O)CC[C@]4(C)[C@H]3CC[C@]12C", "ASSAY_SYSTEM": "RAW264.7", "ANSWER_LABEL": "rule met"}
{"MOLECULE": "C[C@]12CC[C@H]3[C@@H](CC=C4C[C@@H](O)CC[C@@]43C)[C@@H]1CC[C@@H]2C(=O)Nc1n[nH]cc1C#N", "ASSAY_SYSTEM": "RAW264.7", "ANSWER_LABEL": "rule not met"}
{"MOLECULE": "C[C@]12CC[C@H]3[C@@H](CC=C4C[C@@H](O)CC[C@@]43C)[C@@H]1CC[C@@H]2C(=O)NCCc1ccccc1", "ASSAY_SYSTEM": "RAW264.7", "ANSWER_LABEL": "rule met"}
{"MOLECULE": "C[C@]12CC[C@H]3[C@@H](CC=C4C[C@@H](O)CC[C@@]43C)[C@@H]1CC[C@@H]2C(=O)NCCc1cccs1", "ASSAY_SYSTEM": "RAW264.7", "ANSWER_LABEL": "rule met"}
{"MOLECULE": "C[C@]12CC[C@H]3[C@@H](CC=C4C[C@@H](O)CC[C@@]43C)[C@@H]1CC[C@@H]2C(=O)n1ccnc1", "ASSAY_SYSTEM": "RAW264.7", "ANSWER_LABEL": "rule met"}
{"MOLECULE": "CCN(CC)C(=O)[C@H]1CC[C@H]2[C@@H]3CC=C4C[C@@H](O)CC[C@]4(C)[C@H]3CC[C@]12C", "ASSAY_SYSTEM": "RAW264.7", "ANSWER_LABEL": "rule not met"}
{"MOLECULE": "CC[C@](C)(O)[C@H]1CC[C@H]2C3=CC=C4C[C@@H](O)CC[C@]4(C)[C@H]3CC[C@@]21C", "ASSAY_SYSTEM": "RAW264.7", "ANSWER_LABEL": "rule met"}
{"MOLECULE": "C[C@@H]1C[C@H]2[C@@H]3CCC4=CC(=O)C=C[C@]4(C)[C@@]3(F)[C@@H](O)C[C@]2(C)[C@@]1(O)C(=O)CO [DEXAMETHASONE]", "ASSAY_SYSTEM": "RAW264.7", "ANSWER_LABEL": "rule met"}
{"MOLECULE": "CC(=O)NCCNC(=O)[C@H]1CC[C@H]2[C@@H]3CC=C4C[C@@H](O)CC[C@]4(C)[C@H]3CC[C@]12C", "ASSAY_SYSTEM": "RAW264.7", "ANSWER_LABEL": "rule not met"}
{"MOLECULE": "CCCC[C@](C)(O)[C@H]1CC[C@H]2C3=CC=C4C[C@@H](O)CC[C@]4(C)[C@H]3CC[C@@]21C", "ASSAY_SYSTEM": "RAW264.7", "ANSWER_LABEL": "rule not met"}
{"MOLECULE": "CCCNC(=O)[C@H]1CC[C@H]2[C@@H]3CC=C4C[C@@H](O)CC[C@]4(C)[C@H]3CC[C@]12C", "ASSAY_SYSTEM": "RAW264.7", "ANSWER_LABEL": "rule met"}
{"MOLECULE": "C[C@]12CC[C@H]3[C@@H](CC=C4C[C@@H](O)CC[C@@]43C)[C@@H]1CC[C@@H]2C(=O)NC1CCCCC1", "ASSAY_SYSTEM": "RAW264.7", "ANSWER_LABEL": "rule met"}
{"MOLECULE": "CCC[C@](C)(O)[C@H]1CC[C@H]2C3=CC=C4C[C@@H](O)CC[C@]4(C)[C@H]3CC[C@@]21C", "ASSAY_SYSTEM": "RAW264.7", "ANSWER_LABEL": "rule met"}
{"MOLECULE": "C[C@]12CC[C@H]3[C@@H](CC=C4C[C@@H](O)CC[C@@]43C)[C@@H]1CC[C@@H]2C(=O)NCCCn1ccnc1", "ASSAY_SYSTEM": "RAW264.7", "ANSWER_LABEL": "rule met"}
{"MOLECULE": "CCOC(=O)[C@H]1CC[C@H]2C3=CC=C4C[C@@H](O)CC[C@]4(C)[C@H]3CC[C@]12C", "ASSAY_SYSTEM": "RAW264.7", "ANSWER_LABEL": "rule not met"}
{"MOLECULE": "CCCCOC(=O)[C@H]1CC[C@H]2C3=CC=C4C[C@@H](O)CC[C@]4(C)[C@H]3CC[C@]12C", "ASSAY_SYSTEM": "RAW264.7", "ANSWER_LABEL": "rule not met"}
